All figures here come from ChEMBL document CHEMBL5537157.

Would you mind telling me the reported mortality at 4 µM of each entry?
assay: Toxicity in zebrafish embryo assessed as death rate at 4 uM pretreated with compound followed by replacement of growth liquid by microscopy (reference value: 2.22 +/- 3.84 %); set-up: species or system Danio rerio; conditions: in vivo, read-out: Activity
The reply should consist of the numeric value with the unit placed after it.

compound="CC(C)[C@]12O[C@H]1[C@@H]1O[C@@]13[C@@]1(C)CCC4=C(COC4=O)[C@@H]1C[C@@H]1O[C@@]13C2=O [TRIPTONIDE]" result=22.2%

Attention now turns to another entry.
Check the records and state mortality at 4 µM for CC(C)[C@]12O[C@H]1[C@@H]1O[C@]13[C@]1(O[C@H]1C[C@H]1C4=C(CC[C@@]13C)C(=O)OC4)[C@@H]2OC(=O)CCCCCCCC[n+]1ccc(/C=C/c2c[nH]c3ccccc23)cc1.[Br-]
11.1%

---

test: Cytotoxicity against human BEAS-2B cells assessed as inhibition of cell viability incubated for 48 hrs by MTT assay; format: toxicity, cell-based
For each record, check the reported IC50 at 48 h: if it is below 20 µM write class 1, else write class 0.

Example entries and their recorded answers appear below.
smi=CC(C)[C@]12O[C@H]1[C@@H]1O[C@]13[C@]1(O[C@H]1C[C@H]1C4=C(CC[C@@]13C)C(=O)OC4)[C@@H]2OC(=O)CCCCCCC[n+]1ccc(/C=C/c2c[nH]c3ccccc23)cc1.[Br-] discretelabel="class 0"
smi=CC(C)[C@]12O[C@H]1[C@@H]1O[C@]13[C@]1(O[C@H]1C[C@H]1C4=C(CC[C@@]13C)C(=O)OC4)[C@]2(O)COC(=O)CCCCC[P+](c1ccccc1)(c1ccccc1)c1ccccc1 discretelabel="class 0"
smi=CC(C)[C@]12O[C@H]1[C@@H]1O[C@]13[C@]1(O[C@H]1C[C@H]1C4=C(CC[C@@]13C)C(=O)OC4)[C@@H]2OC(=O)CCCCCCCCCC[n+]1ccc(/C=C/c2c[nH]c3ccccc23)cc1 discretelabel="class 1"
smi=CC(C)[C@]12O[C@H]1[C@@H]1O[C@]13[C@]1(O[C@H]1C[C@H]1C4=C(CC[C@@]13C)C(=O)OC4)[C@@H]2OC(=O)CCCCC[n+]1ccc(/C=C/c2c[nH]c3ccccc23)cc1 discretelabel="class 0"
smi=CC(C)[C@]12O[C@H]1[C@@H]1O[C@]13[C@]1(O[C@H]1C[C@H]1C4=C(CC[C@@]13C)C(=O)OC4)[C@@H]2OC(=O)CCCCCCCC[n+]1ccc(/C=C/c2c[nH]c3ccccc23)cc1.[Br-] discretelabel="class 1"
smi=C[n+]1ccc(/C=C/c2c[nH]c3ccccc23)cc1 discretelabel="class 0"
smi=CC(C)[C@]12O[C@H]1[C@@H]1O[C@]13[C@]1(O[C@H]1C[C@H]1C4=C(CC[C@@]13C)C(=O)OC4)[C@@H]2OC(=O)CCCC[n+]1ccc(/C=C/c2c[nH]c3ccccc23)cc1 discretelabel="class 0"

Continue with the next molecule.
IC50 at 48 h strictly < 20 µM for this molecule? CC(C)[C@]12O[C@H]1[C@@H]1O[C@]13[C@]1(O[C@H]1C[C@H]1C4=C(CC[C@@]13C)C(=O)OC4)[C@]2(O)COC(=O)CCCCCCC[P+](c1ccccc1)(c1ccccc1)c1ccccc1
class 0

---

assay: Cytotoxicity against human HUVEC cells assessed as cell growth inhibition at 4.5 to 10 nM incubated for 48 hrs by MTT assay relative to control; format: toxicity, cell-based; settings: dose 4.5-10 nM, read-out: Imax
measuredAttribute: Emax at 48 h

Check the records and state Emax at 48 h for CC(C)[C@]12O[C@H]1[C@@H]1O[C@@]13[C@@]1(C)CCC4=C(COC4=O)[C@@H]1C[C@@H]1O[C@@]13C2=O [TRIPTONIDE]
~60%
